// provenance: ChEMBL document CHEMBL1134514

- Target entity: GABA transporter (Mus musculus) (UniProt P31650+P31651+P31649+P31648)
- Procedure details: Ratio for ED50 values for inhibition of rotarod to inhibition of DMCM-induced convulsions in mice
- Type: functional
Kindly supply the reported Protective index values for the records listed here.

I have this molecule here, Cl.O=C(O)C1=CCCN(CCOCCN2c3ccccc3CCc3ccccc32)C1 , and I need its recorded Protective index.
2.9

# repeat for Cl.O=C(O)[C@H]1CCCN(CCOCC=C2c3ccccc3CCc3ccccc32)C1
> 3.3

# repeat for Cl.O=C(O)[C@H]1CCCN(CCOCCC2c3ccccc3CCc3ccccc32)C1
> 2.6

====

- Target entity: GABA transporter (Mus musculus) (UniProt P31650+P31651+P31649+P31648)
- Procedure details: Ratio for ED50 values for inhibition of rotarod to inhibition of DMCM-induced convulsions in mice
- Type: functional
Kindly supply the reported Protective index values for the records listed here.

I have this compound here, Cl.O=C(O)[C@@H]1CCCN(CCOCCN2c3ccccc3CCCc3ccccc32)C1 , and I need its recorded Protective index.
> 1.5

# repeat for Cl.O=C(O)[C@@H]1CCCN(CCOCCCN2c3ccccc3CCc3ccccc32)C1
> 1.2

# repeat for Cl.O=C(O)[C@@H]1CCCN(CCON=C2c3ccccc3CCc3ccccc32)C1
> 3.3

# repeat for Cl.O=C(O)[C@@H]1CCCN(CCOCCN2c3cc(Cl)ccc3CCc3ccc(Cl)cc32)C1
> 2.2

# repeat for Cl.O=C(O)[C@H]1CCCN(CCOC/C=C2\c3ccccc3CCc3ccc(Cl)cc32)C1
> 1.2

# repeat for Cl.O=C(O)[C@@H]1CCCN(CCCOCC=C2c3ccccc3CCc3ccccc32)C1
> 2.5

====

Kindly supply the reported Protective index values for the records listed here.
- Target entity: GABA transporter (Mus musculus) (UniProt P31650+P31651+P31649+P31648)
- Procedure details: Ratio for ED50 values for inhibition of rotarod to inhibition of DMCM-induced convulsions in mice
- Type: functional

I have this compound here, Cl.O=C(O)[C@@H]1CCCN(CCOCCN2c3ccccc3Sc3ccc(C(F)(F)F)cc32)C1 , and I need its recorded Protective index.
> 1.6

# repeat for Cl.O=C(O)[C@@H]1CCCN(CCOCCN2c3ccccc3C=Cc3ccccc32)C1
> 1

# repeat for Cl.O=C(O)[C@@H]1CCCN(CCOCCN2c3ccccc3CCc3ccc(Cl)cc32)C1
> 2

====

- Target entity: GABA transporter (Rattus norvegicus, UniProt P31647+P23978+P31646+P48056)
- Procedure details: In vitro inhibition of [3H]GABA uptake in rat synaptosomes was determined
- Assay type: functional, subcellular, Brain
Kindly supply the reported log10(IC50) values for the records listed here.
Could you please treat all values as log10 of IC50 in nM?

I have this molecule here, Cl.O=C(O)C1=CCCN(CCOCCC2c3ccccc3CCc3ccccc32)C1 , and I need its recorded log10(IC50).
3.08

# repeat for O=C(O)C1CCCN(CCC=C2c3ccccc3CCc3ccccc32)C1 (stereo not drawn)
4.13

# repeat for Cl.O=C(O)[C@@H]1CCCN(CCOCCN2c3ccccc3CCCc3ccccc32)C1
2.93

# repeat for Cl.O=C(O)[C@@H]1CCCN(CCOCCN2c3ccccc3CCc3ccc(Cl)cc32)C1
1.87

# repeat for Cl.O=C(O)[C@@H]1CCCN(CCOCCN2c3ccc(F)cc3CCc3cc(F)ccc32)C1
2.39

# repeat for Cl.O=C(O)[C@@H]1CCCN(CCON=C2c3cc(Cl)ccc3CCc3ccc(Cl)cc32)C1
3.74

# repeat for Cl.O=C(O)[C@H]1CCCN(CCOCC=C2c3ccccc3CCc3ccccc32)C1
2.89

# repeat for Cl.O=C(O)[C@@H]1CCCN(CCOCCN2c3ccccc3C=Cc3ccccc32)C1
2.81

# repeat for Cl.O=C(O)[C@@H]1CCCN(CCOCCN2c3ccccc3Sc3ccc(C(F)(F)F)cc32)C1
2.02

# repeat for Cl.O=C(O)[C@H]1CCCN(CCOCCC2c3ccccc3CCc3ccccc32)C1
2.75

# repeat for Cl.O=C(O)[C@@H]1CCCN(CCCOCC=C2c3ccccc3CCc3ccccc32)C1
2.66

# repeat for Cl.O=C(O)[C@@H]1CCCN(CCOCCN(c2ccccc2)c2ccccc2)C1
1.95

# repeat for Cl.O=C(O)C1=CCCN(CCOCCN2c3ccccc3CCc3ccccc32)C1
2.81

# repeat for Cl.O=C(O)C1CCCN(CCOC(c2ccccc2)c2ccccc2)C1 (stereo not drawn)
3.14

# repeat for Cl.O=C(O)[C@@H]1CCCN(CCOCCN2c3ccccc3Oc3ccccc32)C1
4.16

# repeat for Cl.O=C(O)CC1CCN(CCOCCN2c3ccccc3CCc3ccccc32)C1 (stereo not drawn)
1.71

# repeat for O=C(O)[C@@H]1CCCN(CCC=C2c3ccccc3-c3ccccc32)C1
3.30

# repeat for O=C(O)C1CCCN(CCOC2c3ccccc3C=Cc3ccccc32)C1 (stereo not drawn)
3.40
